- Tested on: PC-3
- EXPERIMENT: Antiproliferative activity against human PC3 cells after 48 hrs by MTT assay
- Type: functional, cell-based
- REPORTED CONDITIONS: PC-3, 48 h
pIC50: −log10 of the molar value.
# maps each entry to its pIC50
MEASURE NAME: pIC50

COMPOUND: CCN(CCO)C1=C(/C=C/C2=[N+](C)c3ccccc3C2(C)C)CCC/C1=C\C=C1\N(C)c2ccccc2C1(C)C
NUMERIC VALUE: 5.04
//
COMPOUND: CN(C)CCNC1=C(/C=C/C2=[N+](C)c3ccccc3C2(C)C)CCC/C1=C\C=C1\N(C)c2ccccc2C1(C)C
NUMERIC VALUE: 4.88
//
COMPOUND: CN(C)CCSC1=C(/C=C/C2=[N+](C)c3ccccc3C2(C)C)CCC/C1=C\C=C1\N(C)c2ccccc2C1(C)C
NUMERIC VALUE: 5.22
//
COMPOUND: COc1cccc2c1C(=O)c1c(O)c3c(c(O)c1C2=O)C[C@@](O)(C(=O)CO)C[C@@H]3O[C@H]1C[C@H](N)[C@H](O)[C@H](C)O1 [DOXORUBICIN]
NUMERIC VALUE: 5.59
//
COMPOUND: CN1/C(=C/C=C2\CCCC(/C=C/C3=[N+](C)c4ccccc4C3(C)C)=C2NCCO)C(C)(C)c2ccccc21.[I-]
NUMERIC VALUE: 5.33
//
COMPOUND: CN1/C(=C/C=C2\CCCC(/C=C/C3=[N+](C)c4ccccc4C3(C)C)=C2Sc2ccncc2)C(C)(C)c2ccccc21.[I-]
NUMERIC VALUE: 4.90
//
COMPOUND: CN1/C(=C/C=C2\CCCC(/C=C/C3=[N+](C)c4ccccc4C3(C)C)=C2N2CCC(CO)CC2)C(C)(C)c2ccccc21
NUMERIC VALUE: 5.03
//
COMPOUND: CN1/C(=C/C=C2\CCCC(/C=C/C3=[N+](C)c4ccccc4C3(C)C)=C2Oc2ccncc2)C(C)(C)c2ccccc21.[I-]
NUMERIC VALUE: 5.28
//
COMPOUND: CN(CCO)C1=C(/C=C/C2=[N+](C)c3ccccc3C2(C)C)CCC/C1=C\C=C1\N(C)c2ccccc2C1(C)C
NUMERIC VALUE: 5.03
